Origin of measurements: patent US20240360227A1

# SYSTEM TESTED: Recombinant human his-tagged IGF R extracellular domain protein (human) (UniProt P08069)
# ASSAY PROCEDURE: SPR, Ab captured via anti-huIgG Fc, pH 7.4
REPORTED ENDPOINT: Kd (nM)
Express your answer in nM, writing the number without its unit.

Example results:
# BINDER, Kd, nM
records = [
    ("VRDN-02026 (antibody, V domains shown) VH: QVQLQESGPGLVKPSETLSLTCTVSGYSITGGYLWNWIRQPPGKGLEWIGYISYDGTNNYKPSLKDRVTISRDTSKNQFSLKLSSVTAADTAVYYCARYGRVFHDYWGQGTLVTVSS VL: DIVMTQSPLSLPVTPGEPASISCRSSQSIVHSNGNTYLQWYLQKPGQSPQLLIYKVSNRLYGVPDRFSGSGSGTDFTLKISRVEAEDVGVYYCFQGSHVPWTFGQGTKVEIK", 2.4),
    ("VRDN-02049 (antibody, V domains shown) VH: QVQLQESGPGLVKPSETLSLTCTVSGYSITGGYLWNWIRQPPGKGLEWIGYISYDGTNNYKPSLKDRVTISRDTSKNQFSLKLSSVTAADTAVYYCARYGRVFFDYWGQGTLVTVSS VL: DIVMTQSPLSLPVTPGEPASISCRSSQSIVHSNGNTYLQWYLQKPGQSPQLLIYKVSNRHYGVPDRFSGSGSGTDFTLKISRVEAEDVGVYYCFQGSHVPWTFGQGTKVEIK", 0.946),
    ("VRDN-02061 (antibody, V domains shown) VH: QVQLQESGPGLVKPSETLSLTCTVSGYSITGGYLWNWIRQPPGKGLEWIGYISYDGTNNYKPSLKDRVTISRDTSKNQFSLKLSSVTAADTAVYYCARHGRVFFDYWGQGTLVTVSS VL: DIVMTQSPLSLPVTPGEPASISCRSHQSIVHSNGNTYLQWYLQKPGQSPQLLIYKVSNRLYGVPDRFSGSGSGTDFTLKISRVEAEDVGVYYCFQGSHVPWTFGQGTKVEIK", 0.28),
    ("VRDN-02056 (antibody, V domains shown) VH: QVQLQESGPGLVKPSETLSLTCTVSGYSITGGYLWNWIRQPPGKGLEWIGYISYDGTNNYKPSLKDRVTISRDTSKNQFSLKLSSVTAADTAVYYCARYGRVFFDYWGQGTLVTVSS VL: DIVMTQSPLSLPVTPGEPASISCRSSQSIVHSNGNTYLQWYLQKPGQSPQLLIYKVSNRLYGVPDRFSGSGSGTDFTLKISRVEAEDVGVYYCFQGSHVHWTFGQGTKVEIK", 0.237),
]

**Q:** Dear colleague, I am looking for the recorded Kd of the following binder: VRDN-02062 (antibody, V domains shown) VH: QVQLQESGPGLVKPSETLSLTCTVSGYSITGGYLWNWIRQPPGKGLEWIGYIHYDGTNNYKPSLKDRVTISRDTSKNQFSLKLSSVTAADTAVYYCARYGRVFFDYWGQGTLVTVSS VL: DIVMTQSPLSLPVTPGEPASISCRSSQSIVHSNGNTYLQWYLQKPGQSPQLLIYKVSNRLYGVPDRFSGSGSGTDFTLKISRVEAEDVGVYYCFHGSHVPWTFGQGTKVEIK
**A:** 0.225
